Measured values drawn from patent US9193722B2 for this set.

biological target: PKC theta kinase (Homo sapiens, UniProt Q04759); assay: PKC theta kinase inhibition, coupled-enzyme (NADH absorbance) assay, Ki; type: biochemical; settings: 240 μM ATP, 18 nM PKC theta kinase, 30° C.
Sequence (Q04759 whole entry): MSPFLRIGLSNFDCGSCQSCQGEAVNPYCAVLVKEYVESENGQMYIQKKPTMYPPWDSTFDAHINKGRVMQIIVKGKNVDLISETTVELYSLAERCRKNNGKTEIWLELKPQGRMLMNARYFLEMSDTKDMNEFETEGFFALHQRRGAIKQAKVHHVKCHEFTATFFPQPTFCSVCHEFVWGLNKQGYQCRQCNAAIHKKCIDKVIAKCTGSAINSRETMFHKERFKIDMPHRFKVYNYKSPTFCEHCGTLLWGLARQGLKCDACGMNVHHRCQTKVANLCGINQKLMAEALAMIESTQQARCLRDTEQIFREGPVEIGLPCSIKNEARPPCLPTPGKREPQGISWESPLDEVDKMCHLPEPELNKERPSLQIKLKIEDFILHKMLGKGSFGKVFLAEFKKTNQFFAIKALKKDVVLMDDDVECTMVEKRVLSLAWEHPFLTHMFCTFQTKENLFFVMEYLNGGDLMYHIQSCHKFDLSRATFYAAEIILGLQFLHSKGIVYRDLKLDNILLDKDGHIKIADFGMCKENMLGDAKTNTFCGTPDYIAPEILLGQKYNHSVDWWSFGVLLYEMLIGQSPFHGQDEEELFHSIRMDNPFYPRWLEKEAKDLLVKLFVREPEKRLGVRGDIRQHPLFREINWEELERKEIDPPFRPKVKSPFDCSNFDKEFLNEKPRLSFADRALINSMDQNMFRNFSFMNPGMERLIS
Readout type: Ki

Compound	Reported value
CC(C)C[C@H]1CN(c2ccnc(-c3n[nH]c4ncccc34)n2)CCN1 [Compound 66]	< 500 nM
CC(C)C(F)(F)C1CN(c2ccc(C(F)(F)F)c(-c3n[nH]c4ncccc34)n2)CCN1 (stereo not drawn) [Compound 150]	< 500 nM
FC(F)(F)c1ccc(N2CC3CCC(C2)N3)nc1-c1n[nH]c2ncccc12 [Compound 120]	< 500 nM
CC1(C)CN(c2cccc(-c3n[nH]c4ncccc34)n2)CCN1 [Compound 79]	< 50 nM
NC[C@H]1CCN(c2ccc(C(F)(F)F)c(-c3n[nH]c4ncccc34)n2)C1 [Compound 354]	> 700 nM
CC(C)C(O)[C@@H]1CCCN(c2ccc(F)c(-c3n[nH]c4ncccc34)n2)C1 (stereo partly drawn) [Compound 279]	> 700 nM
FC(F)(F)c1ccc(N2CCNC(C(F)(F)F)C2)nc1-c1n[nH]c2ncccc12 (stereo not drawn) [Compound 65]	< 500 nM
CCC(N)C1CCCN(c2ccc(F)c(-c3n[nH]c4ncccc34)n2)C1 (stereo not drawn) [Compound 291]	< 50 nM
FC(F)(F)c1ccc(N2CCNC(c3ccc(Cl)cc3)C2)nc1-c1n[nH]c2ncccc12 (stereo not drawn) [Compound 173]	> 700 nM
CC(C)C(O)(CF)C1CN(c2ccc(F)c(-c3n[nH]c4ncccc34)n2)CCN1 (stereo not drawn) [Compound 264]	< 50 nM

Record lookup: for PKC theta kinase (Homo sapiens, UniProt Q04759), what Ki belongs to CC(C)C[C@@H]1CN(c2cccc(-c3n[nH]c4ncc(F)cc34)n2)CCN1 [Compound 46] ?
< 50 nM

Record lookup: for PKC theta kinase (Homo sapiens, UniProt Q04759), what Ki belongs to CCNC(=O)C1CN(c2ccc(C(F)(F)F)c(-c3n[nH]c4ncccc34)n2)CCN1 (stereo not drawn) [Compound 216] ?
> 700 nM

Record lookup: for PKC theta kinase (Homo sapiens, UniProt Q04759), what Ki belongs to CC(C)CC1(N)CCCN(c2ccc(F)c(-c3n[nH]c4ncccc34)n2)C1 (stereo not drawn) [Compound 284] ?
< 500 nM

Record lookup: for PKC theta kinase (Homo sapiens, UniProt Q04759), what Ki belongs to CC(C)C(N)C1CN(c2ccc(F)c(-c3n[nH]c4ncccc34)n2)CCO1 (stereo not drawn) [Compound 346] ?
< 50 nM

Record lookup: for PKC theta kinase (Homo sapiens, UniProt Q04759), what Ki belongs to CC(C)CC1CN(c2cc(C(F)(F)F)cc(-c3n[nH]c4ncccc34)n2)CCC1N (stereo not drawn) [Compound 419] ?
< 500 nM

Record lookup: for PKC theta kinase (Homo sapiens, UniProt Q04759), what Ki belongs to CN(C)C(=O)C1CN(c2ccc(C(F)(F)F)c(-c3n[nH]c4ncccc34)n2)CCN1 (stereo not drawn) [Compound 215] ?
> 700 nM

Record lookup: for PKC theta kinase (Homo sapiens, UniProt Q04759), what Ki belongs to CC(C)CC1(CN)CN(c2ccc(C(F)(F)F)c(-c3n[nH]c4ncccc34)n2)CCO1 (stereo not drawn) [Compound 397] ?
< 500 nM

Record lookup: for PKC theta kinase (Homo sapiens, UniProt Q04759), what Ki belongs to CC(C)CC1(CN)CCCN(c2ccc(F)c(-c3n[nH]c4ncccc34)n2)C1 (stereo not drawn) [Compound 351] ?
< 50 nM

Record lookup: for PKC theta kinase (Homo sapiens, UniProt Q04759), what Ki belongs to CC(C)(C)C(N)C1CCCN(c2ccc(F)c(-c3n[nH]c4ncccc34)n2)C1 (stereo not drawn) [Compound 308] ?
< 50 nM

Record lookup: for PKC theta kinase (Homo sapiens, UniProt Q04759), what Ki belongs to CCC1(CC)CN(c2ccc(C(F)(F)F)c(-c3n[nH]c4ncccc34)n2)CCC1N (stereo not drawn) [Compound 427] ?
< 50 nM

Record lookup: for PKC theta kinase (Homo sapiens, UniProt Q04759), what Ki belongs to CC(N)[C@H]1CCCN(c2ccc(F)c(-c3n[nH]c4ncccc34)n2)C1 (stereo partly drawn) [Compound 262] ?
< 50 nM
